tested on: OVCAR-8 ovarian; experiment: NCI-60 one-dose screen, 48 h (100 = growth as untreated, 0 = no growth, -100 = all killed); details: 10 µM unless noted
The panel holds about 83,000 compounds, 20% with a hit somewhere; the sample as a whole holds those more often.
Form field: growth (one value per entry).
# number only, unit % dropped from output

As a guide, the following entries are already answered.
[
  {
    "molecule": "CCCCCCCCCCCCCCCCCC1=NCCN1CS(=O)(=O)O",
    "assay-endpoint": "growth",
    "obs-value": 36.1
  },
  {
    "molecule": "NC(=O)CC(NC(=O)COc1ccc(Cl)cc1Cl)C(=O)O (stereo not given)",
    "assay-endpoint": "growth",
    "obs-value": 105
  },
  {
    "molecule": "CCCCCCCCCCCCc1ccc([N+](CC)(CC)CC)cc1",
    "assay-endpoint": "growth",
    "obs-value": 31.7
  },
  {
    "molecule": "COc1cc(N2C(=O)C=CC2=O)ccc1N1C(=O)C=CC1=O",
    "assay-endpoint": "growth",
    "obs-value": 110
  },
  {
    "molecule": "CCCCCCC(C)N(CC(C)(C)O)C(=O)c1ccc([N+](=O)[O-])cc1 (stereo not given)",
    "assay-endpoint": "growth",
    "obs-value": 101
  }
]

Query block: Name the reported growth value associated with the molecule `CCCC[N+](C)(N)CCCC`
Result block: 99.2

Query block: Query `COc1ccc(Cn2cc3c(c2-c2ccccc2)CCc2cnoc2-3)cc1N` next
Result block: 30

Query block: Query `C[C@@H](c1ccc2c(c1)[nH]c1ccc(Cl)cc12)c1nc2ccccc2[nH]1` next
Result block: 93

Query block: Query `COC(=O)c1ccc2[nH]c(O)c(C(=Nc3ccc(N(C)C(=O)CN4CCN(C)CC4)cc3)c3ccc(CCO)cc3)c2c1` next
Result block: 64.5

Query block: Query `CNCCCNCCCCNCCCN1C(=O)c2ccc3c4c(ccc(c24)C1=O)C(=O)N(CCCNCc1ccccc1OC)C3=O` next
Result block: 41.9

Query block: Query `O=C(CCl)NC1c2ccccc2Oc2ccccc21` next
Result block: 61.2

Query block: Query `COc1cc(-c2nn(-c3ccc(NC(=O)Nc4cc(C(F)(F)F)cc(C(F)(F)F)c4)cc3)cc2-c2ccncc2)ccc1Cl` next
Result block: 9.59

Query block: Query `CCC(C)(C)c1ccc(OCCCCCCN2CCN(c3ccc(C)c(Cl)c3)CC2)cc1` next
Result block: 98.7

Query block: Query `O=C(c1ccccc1)c1ccccc1-c1ccccc1` next
Result block: 36.7

Query block: Query `CCC(C)(C)c1ccc(OCCCCCCN2CCNCC2)cc1` next
Result block: 75.2

###

test system: SF-268 CNS; assay: NCI-60 one-dose screen, 48 h (100 = growth as untreated, 0 = no growth, -100 = all killed); settings: 10 µM unless noted
This is part of a sample that, as a whole, favours compounds with a hit. Of some 83,000 tested, about 20% had one in any assay.
assay-endpoint: growth (%)
# number only, unit % dropped from output

[
  {
    "compound": "CC(=O)OC1CC2C3CCC4C[C@@H](NC(=O)C=C(C)C)CC[C@]4(C)C3CC[C@]2(C)[C@H]1C(C)N(C)C (some centres undefined)",
    "unit-tag": "%",
    "growth": -63
  },
  {
    "compound": "C[C@@H](c1ccc2c(c1)[nH]c1ccc(Cl)cc12)c1nc2ccccc2[nH]1",
    "unit-tag": "%",
    "growth": 87.3
  },
  {
    "compound": "Nc1cc2c(cc1Br)[nH]c(=O)c1ccccc12",
    "unit-tag": "%",
    "growth": 51.3
  },
  {
    "compound": "COc1cc2cc3cc4cc(OC)c(OC)cc4c(C)[n+]3cc2cc1OC (tested in a mixture with another compound)",
    "unit-tag": "%",
    "growth": 39.4
  },
  {
    "compound": "COc1ccc(C(=O)CN2C(=O)NC(c3ccccc3)(c3ccccc3)C2=O)cc1",
    "unit-tag": "%",
    "growth": 101
  },
  {
    "compound": "O=C1CSC(c2ccccc2Cl)N1c1nnc(-c2ccncc2)o1 (centres undefined)",
    "unit-tag": "%",
    "growth": 99.5
  },
  {
    "compound": "CC(=O)C(CO)C(=O)Nc1ccccc1 (centres undefined)",
    "unit-tag": "%",
    "growth": 107
  },
  {
    "compound": "Cc1ccc(C(C)C)c(OCc2ccc(C(=O)N/N=C/c3cccc(O)c3O)cc2)c1",
    "unit-tag": "%",
    "growth": 25.6
  }
]

Query block: Name the reported growth value associated with the compound `Cc1ccc(NC(=O)CCl)cc1Cl`
Result block: 103

###

test system: T-47D breast; experiment: NCI-60 one-dose screen, 48 h; conditions: 10 µM unless noted
About 83,000 compounds went through this panel and 20% of them were active in at least one assay; those are over-represented in the sample as a whole. The source made the active and inactive calls. Rule for the calls: active = growth percent below 10; inactive = the rest.
Please state which outcome applies, choosing from active, inactive

[
  {
    "molecule": "CCCCCCNc1nc(N2CCOCC2)c2[nH]c(NCCCCCC)nc2n1",
    "answer-label": "active"
  },
  {
    "molecule": "COc1cc(-c2nn(-c3ccc(NC(=O)c4ccc(Cl)c(Cl)c4)cc3)cc2-c2ccncc2)ccc1Cl",
    "answer-label": "inactive"
  },
  {
    "molecule": "CCCCn1c(Cc2ccc(OC)cc2)nc2cc(OC)c(OC)cc2c1=O",
    "answer-label": "inactive"
  }
]

Query block: Please indicate how the test categorized CCCCCCCCc1ccc(OCCOCC[N+](C)(C)CC)cc1 (tested in a mixture with another compound) .
Result block: inactive

Query block: Query `COC(=O)[C@H](Cc1cn(C)cn1)NC(=O)[C@H](CC(=O)OCc1ccccc1)NC(=O)Nc1cc(C(F)(F)F)cc(C(F)(F)F)c1` next
Result block: active

Query block: Query `Nc1ccc(S(=O)(=O)c2ccc(NO)cc2)cc1` next
Result block: inactive

###

test system: TK-10 renal; test: NCI-60 one-dose screen, 48 h (100 = growth as untreated, 0 = no growth, -100 = all killed); conditions: 10 µM unless noted
About 83,000 compounds went through this panel and 20% of them were active in at least one assay; those are over-represented in the sample as a whole.
Form field: growth (one value per entry).
# number only, unit % dropped from output

Query block: Short answer please: growth, TK-10 renal, entry `CCOC(=O)c1c(C)oc2ncnc(Nc3ccc(C(=O)NCCc4ccccc4)cc3)c12`
Result block: 102

Query block: Query `O=C1C=C(OCC=C(C(F)(F)F)C(F)(F)F)c2ccccc2C1=O` next
Result block: 53.5

Query block: Query `O=C(/C=C/c1c[nH]c2ccccc12)c1cc2ccccc2o1` next
Result block: 140

Query block: Query `COc1cc(-c2nn(-c3ccc(NC(=O)c4ccc(Cl)c(C(F)(F)F)c4)cc3)cc2-c2ccncc2)ccc1Cl` next
Result block: 6.27

Query block: Query `O=C(/C=C/c1ccc(Cl)cc1)c1ccc(Cl)cc1` next
Result block: 78

Query block: Query `CC(C)CCCCCOC(=O)c1ccccc1SSc1ccccc1C(=O)OCCCCCC(C)C` next
Result block: 136

Query block: Query `C=C(C)[C@@H]1CC[C@]2(COC(=O)c3ccccc3C(=O)O)CC[C@]3(C)[C@H](CC[C@@H]4[C@@]5(C)CCCNC(C)(C)[C@@H]5CC[C@]43C)[C@@H]12` next
Result block: 65.6

Query block: Query `CSC1=Nc2c(c(C)c(-c3ccccc3)n2CCCCl)C2=NC(=O)CN12` next
Result block: 105

Query block: Query `COC(=O)c1ccc2[nH]c(O)c(C(=Nc3ccc(N(C)C(=O)CN4CCN(C)CC4)cc3)c3ccc(C)cc3)c2c1` next
Result block: -82.7

###

system: PC-3 prostate; assay: NCI-60 one-dose screen, 48 h (100 = growth as untreated, 0 = no growth, -100 = all killed); conditions: 10 µM unless noted
The panel holds about 83,000 compounds, 20% with a hit somewhere; the sample as a whole holds those more often.
assay-endpoint: growth (%)
# number only, unit % dropped from output

As a guide, the following entries are already answered.
[
  {
    "compound": "Nc1nc2c(c3ncncc13)C(c1cccc(C(F)(F)F)c1)Cc1ncncc1-2 (stereo not drawn)",
    "target-or-test-system": "PC-3 prostate",
    "growth / %": 26.4
  },
  {
    "compound": "COc1ccccc1C(=O)Nc1cccc(-c2cc(=O)c3c(OC)c(OC)c(OC)cc3o2)c1",
    "target-or-test-system": "PC-3 prostate",
    "growth / %": 30
  }
]

Now consider a different compound.
Query block: Name the reported growth value associated with the compound COc1ccc(C(=O)N2N=C(c3ccc(Br)cc3)CC2c2cn(-c3ccccc3)nc2-c2ccccc2)cc1 (stereo not drawn)
Result block: 36.1

Ref: PubChem BioAssay (NCI)
